Experiment: 1-octanol/water partition co-efficient, log D of the compound in PBS at pH 7.4 after 6 hrs by HPLC-UV based shake-flask method
Assay type: physicochemical
Conditions: 1-octanol/PBS
Reported logD at 6 h values are given for each entry in this list.
Please give only the number in your answer, with no unit.

Examples from the recorded data:
{"Smiles representation": "COc1ccc(-c2ccnc(Nc3cccc(S(N)(=O)=O)c3)n2)cc1", "logD at 6 h": 2.7}
{"Smiles representation": "COc1ccc(-c2ccnc(Nc3cccc(NS(C)(=O)=O)c3)n2)cc1", "logD at 6 h": 3.2}
{"Smiles representation": "COC(=O)c1ccc(Nc2nccc(-c3ccc(OC)cc3)n2)cc1", "logD at 6 h": 2.9}
{"Smiles representation": "COc1ccc(-c2ccnc(Nc3ccc(C(N)=O)cc3)n2)cc1", "logD at 6 h": 2.8}
{"Smiles representation": "NS(=O)(=O)c1cccc(Nc2nccc(-c3ccccc3)n2)c1", "logD at 6 h": 2.9}
{"Smiles representation": "COc1cccc(-c2ccnc(Nc3cccc(S(N)(=O)=O)c3)n2)c1", "logD at 6 h": 3}
{"Smiles representation": "COc1ccc(-c2ccnc(Nc3ccc(C(=O)O)cc3)n2)cc1", "logD at 6 h": 1.2}

Write down logD at 6 h measured for item `COc1ccc(-c2ccnc(Nc3cccc(C(N)=O)c3)n2)cc1`
3.1

====

Experiment: Solubility of the compound in PBS at pH 7.4 by HPLC-UV analysis
Format: physicochemical
Result type: solubility (µM)
Respond with the bare value in µM.

Examples from the recorded data:
{"Smiles representation": "COc1ccc(-c2ccnc(Nc3cccc(C(N)=O)c3)n2)cc1", "Result type": "solubility", "Scale unit": "µM", "Value reported": 4.1}
{"Smiles representation": "COc1ccc(-c2ccnc(Nc3cccc(S(N)(=O)=O)c3)n2)cc1", "Result type": "solubility", "Scale unit": "µM", "Value reported": 38.4}
{"Smiles representation": "COC(=O)c1ccc(Nc2nccc(-c3ccc(OC)cc3)n2)cc1", "Result type": "solubility", "Scale unit": "µM", "Value reported": 6.9}

Write down solubility measured for item `NS(=O)(=O)c1cccc(Nc2nccc(-c3ccccc3)n2)c1`
3.4

Write down solubility measured for item `COc1ccc(-c2ccnc(Nc3ccc(C(=O)O)cc3)n2)cc1`
12.1

====

System: Vero
Assay: Cytotoxicity against African green monkey Vero cells after 72 hrs by MTT assay
Type: ADME, cell-based
Conditions: Chlorocebus sabaeus
Reported pIC50 values are given for each entry in this list.
Scale explanation: pIC50 corresponds to minus log10 of a concentration expressed in moles per litre.

{"Smiles representation": "COc1ccc(-c2ccnc(Nc3cccc(S(N)(=O)=O)c3)n2)cc1", "Target": "Vero", "Value reported": 5.96}

Next item in the queue.
Give pIC50 only, for `COc1ccc(-c2ccnc(Nc3ccc4cn[nH]c4c3)n2)cc1` , using Vero data.
5.10

====

Test: Solubility of the compound in PBS at pH 7.4 by HPLC-UV analysis
Format: physicochemical
Reported solubility values are given for each entry in this list.

{"Smiles representation": "COc1cccc(-c2ccnc(Nc3cccc(S(N)(=O)=O)c3)n2)c1", "Value reported": "< 0.6 µM"}
{"Smiles representation": "COc1ccc(-c2ccnc(Nc3cccc(NS(C)(=O)=O)c3)n2)cc1", "Value reported": "< 0.5 µM"}

Next item in the queue.
Write down solubility measured for item `COc1ccc(-c2ccnc(Nc3ccc(C(N)=O)cc3)n2)cc1`
< 0.6 µM

====

Reported pIC50 values are given for each entry in this list.
Test system: Vero
Test: Cytotoxicity against African green monkey Vero cells after 72 hrs by MTT assay
Format: ADME, cell-based
Conditions: Chlorocebus sabaeus
pIC50: −log10 of the molar value.

Examples from the recorded data:
{"Smiles representation": "Cc1csc(-c2ccnc(Nc3cccc(C(N)=O)c3)n2)c1", "pIC50": "< 4.00"}
{"Smiles representation": "CS(=O)(=O)c1ccc(-c2ccnc(Nc3cccc(S(N)(=O)=O)c3)n2)cc1", "pIC50": "< 4.00"}

Next item in the queue.
Write down pIC50 measured for item `CC(=O)Nc1ccc(-c2ccnc(Nc3cccc(C(N)=O)c3)n2)cc1`
< 4.00
